Biological target: T1, human EphA2 (human, UniProt P29317 24-534, limits assumed)
T1 construct: Target of the BIAcore analysis as named in the text
T1 sequence (P29317 24-534 limits assumed): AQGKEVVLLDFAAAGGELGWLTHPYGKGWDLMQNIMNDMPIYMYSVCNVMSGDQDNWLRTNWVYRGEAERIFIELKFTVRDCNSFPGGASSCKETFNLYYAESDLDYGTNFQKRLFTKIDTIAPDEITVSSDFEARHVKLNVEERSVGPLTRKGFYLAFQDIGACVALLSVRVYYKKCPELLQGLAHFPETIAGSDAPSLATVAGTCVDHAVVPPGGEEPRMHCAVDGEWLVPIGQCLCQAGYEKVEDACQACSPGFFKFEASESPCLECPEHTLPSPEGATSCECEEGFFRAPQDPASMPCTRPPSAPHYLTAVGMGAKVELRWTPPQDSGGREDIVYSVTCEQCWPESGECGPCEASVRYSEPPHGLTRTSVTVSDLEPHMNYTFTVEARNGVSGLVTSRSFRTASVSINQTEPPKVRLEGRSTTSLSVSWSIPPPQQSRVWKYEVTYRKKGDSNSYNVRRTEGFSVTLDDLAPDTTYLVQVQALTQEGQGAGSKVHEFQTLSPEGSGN
Assay: BIAcore; format not stated
The entries below come with measured koff values attached.
Write down the numeric answer in s⁻¹ and omit the unit.

In the examples that follow, each entry is paired with its recorded koff.
BINDER	koff [s⁻¹]
Chimaeric version of EP101 (hu IgG1) (antibody, V domains shown, Chimeric Fab cloned and expressed as a full length human IgG1; also called chimeric version of anti-EphA2 antibody) VH: EVKLVESGGGLVQPGGSLSLSCAASGFTFTDYSMNWVRQPPGKALEWLGFIRNKANDYTTEYSASVKGRFTISRDNSQSILYLQMNALRAEDSATYYCVRYPRYHAMDSWGQGTSVTVSS VL: DIVLTQSPATLSVTPGDSVNLSCRASQSISNNLHWYQQKSHESPRLLIKYVFQSISGIPSRFSGSGSGTDFTLSINSVETEDFGMYFCQQSNSWPLTFGAGTKLELK	8.04e-05
Mouse version of EP101 (mouse IgG) (antibody, V domains shown, Mouse IgG; also called anti-human EphA2 monoclonal antibody EP101; parental murine antibody) VH: EVKLVESGGGLVQPGGSLSLSCAASGFTFTDYSMNWVRQPPGKALEWLGFIRNKANDYTTEYSASVKGRFTISRDNSQSILYLQMNALRAEDSATYYCVRYPRYHAMDSWGQGTSVTVSS VL: DIVLTQSPATLSVTPGDSVNLSCRASQSISNNLHWYQQKSHESPRLLIKYVFQSISGIPSRFSGSGSGTDFTLSINSVETEDFGMYFCQQSNSWPLTFGAGTKLELK	0.000101
Humanized version III of EP101 (hu IgG1) (antibody, V domains shown) VH: QMQLVQSGPEVKKPGTSVKVSCKASGFTFTDYSMNWVRQARGQRLEWIGFIRNKANDYTTEYSASVKGRVTITRDMSTSTAYMELSSLRSEDTAVYYCARYPRYHAMDSWGQGTSVTVSS VL: DIVMTQSPSSLSASVGDRVTIICRASQSISNNLHWYQQKPGKAPKLLIKYVFQSISGVPSRFSGSGSGTDFTFTISSLQPEDFATYYCQQSNSWPLTFGGGTKVEIK	7.62e-05
Humanized version I of EP101 (hu IgG1) (antibody, V domains shown) VH: QMQLVQSGPEVKKPGTSVKVSCKASGFTFTDYSMNWVRQARGQRLEWLGFIRNKANDYTTEYSASVKGRVTITRDMSTSTAYMELSSLRSEDTAVYYCARYPRYHAMDSWGQGTSVTVSS VL: DIVMTQSPSSLSASVGDRVTIICRASQSISNNLHWYQQKPGKAPKLLIKYVFQSISGVPSRFSGSGSGTDFTFTISSLQPEDFATYYCQQSNSWPLTFGGGTKVEIK	3.76e-05

Then there is this binder:
Ask | Item under review: Humanized version II of EP101 (hu IgG1) (antibody, V domains shown) VH: QMQLVQSGPEVKKPGTSVKVSCKASGFTFTDYSMNWVRQARGQRLEWIGFIRNKANDYTTEYSASVKGRVTITRDMSTSTAYMELSSLRSEDTAVYYCARYPRYHAMDSWGQGTSVTVSS VL: DIQMTQSPSSLSASVGDRVTITCRASQSISNNLHWYQQKPGKAPKLLIKYVFQSISGVPSRFSGSGSGTDFTFTISSLQPEDFATYYCQQSNSWPLTFGGGTKVEIK . Reported koff?
Reply | 4.13e-05
